Target: T1, T cell receptor (TCR) Vγ9 (TRGV9) (human, UniProt Q99603 21-122); note: unit not given here
T1 chain (looked up): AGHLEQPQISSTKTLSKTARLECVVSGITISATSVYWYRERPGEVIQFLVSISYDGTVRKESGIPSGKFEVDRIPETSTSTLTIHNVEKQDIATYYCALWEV
Assay: cell-based or functional assay
ASSAY_ENDPOINT: Granzyme B, Luminex (supernatant)
Please reply with the value in numeric form only.

Here's what some known entries look like.
BINDER: VG9B463 (antibody, human IgG1, lambda, V domains shown) VH: EVQLVESGGGLVKPGGSLRLSCSASGFTFSNYDMNWVRQAPGKGLEWVSSISSSSSYIYYADSVKGRFTISRDNAKNSLYLQMNSLRAEDTAVYHCARDVGVTTDYYYYGMDVWGQGTTVTVSS VL: QPVLTQSSSASGTPGQRVTISCSGSSSNIGSNTVNWYQQFPGTAPKLLIYTNTQRPSGVPDRFSGSKSGTLVSLAISGLQSEDEADYYCAAWDDSLNAWVFGGGTKLTVLG
REPORTED_RESULT: 965
//
BINDER: VG9B430 (antibody, human IgG1, kappa, V domains shown) VH: EVQLLESGGGLVKPGGSLRLSCSASGFTFSSYDMNWVRQAPGKGLEWVSSISSSSSYIYYADSVKGRFTISRDNAKNSLYLQMNSLRAEDTAVYHCARDVGVTTDYYYYGMDVWGQGTMVTVSS VL: EIVLTQSPGTLSLSPGDRATLSCRASQSVASSYLAWYQQKPGQSPRLLIYGASSRATGIPDRFSGSGSGTDFTLTISRLEPEDFAVYYCQQYGSSPPYTFGQGTKLEIKR
REPORTED_RESULT: 2520

// next entry
Would you kindly share the measured Granzyme B, Luminex (supernatant) for VG9B198 (antibody, human IgG1, lambda, V domains shown) VH: QVQLQESGPGLVKPSETLSLTCTVSGDSISSIYWSWIRQSAGKGLEWIGRIYTTDITNYNPSLKSRVTMSADTSKNQLSLKLTSVTAADTAVYYCAKNGYSYGGFNYWGQGTLVTVSS VL: QSVLTQPPSVSGAPGQRVTISCTGSSSNIGAGYDVHWYQRLPGTAPKLLIYGDSYRPSGVPDRFSGSKSGTSASLAITGLQAEDEADYYCQSYDSSLSVVVFGGGTKLTVLG ?
1100

All figures here come from patent US20220125947A1.
